This collection of values is drawn from PubChem BioAssay (Tox21).

- measurement_description: qHTS RealTime-Glo MT Cell Viability Assay in HEK293 cells - 16 hour (AID 1224872); also: nearly all actives have a fitted effect of over 50% in size
- condition_label: RealTime-Glo luminescence; series mostly up to 76.8 µM
Results filed as inconclusive are left out. Activity calls are given as the source filed them. Calls follow the shape of the dose curve; as a rule, active = well fitted cell-killing curve with a large enough effect in the repeat runs; inconclusive = weak or mixed curves, or effect the other way; inactive = flat fitted curve, though single readings scatter.
Select the correct class. Options are true (1) for active, false (0) for inactive and nothing else.

Data request: What is the recorded call for this molecule in the test? "O=C(c1ccccc1)C(Cl)Cl"
Data returned: true (1)

Data request: // return assay outcome for "Cc1cc(C)c(C(=O)P(=O)(c2ccccc2)c2ccccc2)c(C)c1"
Data returned: true (1)

Data request: Assay outcome for "O=[N+]([O-])c1c(Cl)c(Cl)cc(Cl)c1Cl" : what was it?
Data returned: false (0)

Data request: What is the recorded call for this molecule in the test? "O=C1C(I)=CC(=C(c2cc(I)c(O)c(I)c2)c2ccccc2C(=O)O)C=C1I"
Data returned: false (0)

* * *

- study_target: Androgen receptor (Homo sapiens)
- measurement_description: qHTS assay to identify small molecule agonists of the androgen receptor (AR) signaling pathway using the MDA cell line (AID 743040; also: nearly all actives have a fitted effect of over 20% in size)
- condition_label: MDA-kb2 AR-luc cells, MMTV luciferase, 16 h; series mostly up to 70.3 µM
Activity calls are given as the source filed them. Calls come from the whole dose curve; as a rule, active = well fitted activation curve with a large enough effect in the repeat runs; inconclusive = weak or mixed curves; inactive = flat fitted curve, though single readings scatter.
Please state which outcome applies, choosing from active, inactive

{"molecule": "Cc1nnc2n1-c1sc(Br)cc1C(c1ccccc1Cl)=NC2", "group_label": "inactive"}
{"molecule": "Oc1cc[c]([Hg][Cl])cc1", "group_label": "inactive"}
{"molecule": "C[C@H]1CC[C@]2(NC1)O[C@H]1C[C@H]3[C@@H]4CC[C@H]5C[C@@H](O[C@@H]6O[C@H](CO)[C@H](O[C@@H]7O[C@H](CO)[C@@H](O)[C@H](O[C@@H]8OC[C@@H](O)[C@H](O)[C@H]8O)[C@H]7O[C@@H]7O[C@H](CO)[C@@H](O)[C@H](O)[C@H]7O)[C@H](O)[C@H]6O)CC[C@]5(C)[C@H]4CC[C@]3(C)[C@H]1[C@@H]2C", "group_label": "inactive"}
{"molecule": "COC(COC(N)=O)C1=C(N2CC2)C(=O)C(C)=C(N2CC2)C1=O (stereo not given)", "group_label": "inactive"}

Moving on to another molecule below.
Data request: # outcome recorded in this test, key = "CC(=O)O[C@H]1CC[C@H]2[C@@H]3CCC4=CC(=O)CCC4=C3C=C[C@]12C"
Data returned: active

* * *

- measurement_description: Human pregnane X receptor (PXR) small molecule agonists, qHTS cell viability counter screen (AID 1346977); also: nearly all actives have a fitted effect of over 50% in size; also: potency is read from the fitted curve at half-maximal effect
- condition_label: PXR-Luc HepG2 viability, CellTiter-Fluor, 24 h; series mostly up to 92.4 µM
Inconclusive results are not listed. Calls of active or inactive are those of the source. Calls follow the shape of the dose curve; as a rule, active = well fitted cell-killing curve with a large enough effect in the repeat runs; inconclusive = weak or mixed curves, or effect the other way; inactive = flat fitted curve, though single readings scatter.

{"sample_smiles": "O=[N+]([O-])c1c(Cl)c(Cl)cc(Cl)c1Cl", "Potency": "inactive"}
{"sample_smiles": "Clc1ccccc1-c1ccccc1Cl", "Potency": "inactive"}
{"sample_smiles": "Cc1cc(C)c(C(=O)P(=O)(c2ccccc2)c2ccccc2)c(C)c1", "Potency": "61.1 µM (active)"}
{"sample_smiles": "CNC(=O)Oc1cc(C)c(SC)c(C)c1", "Potency": "inactive"}

* * *

- study_target: Acetylcholinesterase (Homo sapiens)
- measurement_description: Acetylcholinesterase (AChE) small molecule antagonists: enzyme-based qHTS assay with human liver microsomes (AID 1347399); also: nearly all actives have a fitted effect of over 60% in size
- condition_label: qHTS inhibition; series mostly up to 115 µM
The source made the active and inactive calls. Calls come from the whole dose curve.
Output constraint: value belongs to active, inactive

{"compound": "CNS(=O)(=O)CCc1ccc2[nH]cc(C3CCN(C)CC3)c2c1", "group_label": "inactive"}
{"compound": "CC(O)C(CO)C(C)O (stereo unspecified)", "group_label": "inactive"}
{"compound": "CO[C@H]1C=CO[C@@]2(C)Oc3c(C)c(O)c4c(O)c(c(/C=N/N5CCN(C)CC5)c(O)c4c3C2=O)NC(=O)/C(C)=C\\C=C[C@H](C)[C@H](O)[C@@H](C)[C@@H](O)[C@@H](C)[C@H](OC(C)=O)[C@@H]1C", "group_label": "inactive"}
{"compound": "CC(C)(C)c1ccc(O)c(O)c1", "group_label": "inactive"}
{"compound": "COc1ccc(Nc2ccc(OC)cc2)cc1", "group_label": "inactive"}

Data request: In this assay, the call recorded for "O=[N+]([O-])c1cccc(Cl)c1" was what?
Data returned: inactive

Data request: Recorded test outcome, item "CCCCCCCCCCCCCCCCC"
Data returned: inactive

Data request: Query: recorded result category for "CC(C)COC(=O)c1ccccc1" in this test
Data returned: inactive

Data request: Can you look up the reported call for "CCCCCC[C@@H](O)C/C=C\CCCCCCCC(=O)O" for me?
Data returned: inactive

Data request: Could you check what this test reported for "CC(C)C[C@H](NC(=O)[C@H](Cc1ccccc1)NC(=O)c1cnccn1)B(O)O" ?
Data returned: inactive

Data request: In this assay, the call recorded for "O=C(O)c1cc(C(=O)O)cc(S(=O)(=O)O)c1" was what?
Data returned: inactive

* * *

- measurement_description: qHTS assay for small molecule agonists of the p53 signaling pathway (AID 651631); also: nearly all actives have a fitted effect of over 15% in size
- condition_label: HCT-116 p53RE-bla reporter, beta-lactamase FRET ratio, 16 h; series mostly up to 73.3 µM
Results filed as inconclusive are left out. Active and inactive are the calls of the source. Calls follow the shape of the full dose curve.
The reply should name one outcome from active, inactive

{"molecule": "O=C(O)/C=C/C(=O)O", "group_label": "inactive"}
{"molecule": "C[C@]12CC[C@H]3[C@@H](CCC4=C(Cl)C(=O)CC[C@@]43C)[C@@H]1CC[C@@H]2O", "group_label": "inactive"}
{"molecule": "O=c1ccc2cc(O[C@@H]3O[C@H](CO)[C@@H](O)[C@H](O)[C@H]3O)c(O)cc2o1", "group_label": "active"}
{"molecule": "CCC1C(C)=NN=C(c2ccc(OC)c(OC)c2)c2cc(OC)c(OC)cc21 (configuration not stated)", "group_label": "inactive"}
{"molecule": "C/C=C(\\CC)C(=O)NC(N)=O", "group_label": "inactive"}
{"molecule": "CC(Cc1ccccc1)NC=O (configuration not stated)", "group_label": "inactive"}
{"molecule": "Cc1ccccc1-n1c(C)nc2ccccc2c1=O", "group_label": "inactive"}
{"molecule": "COc1cc([C@@H]2c3cc4c(cc3[C@H](O)[C@H]3COC(=O)[C@H]23)OCO4)cc(OC)c1OC", "group_label": "inactive"}

Data request: Test call for this molecule, please: "c1cc2c(c(NC3=NCCN3)c1)CCCC2"
Data returned: inactive

Data request: Hi team, can someone confirm the assay call for "Cc1cc([N+](=O)[O-])ccc1N" ?
Data returned: inactive

Data request: Called result for "O=c1[nH]cc(N(CCCl)CCCl)c(=O)[nH]1"
Data returned: active

Data request: In this assay, the call recorded for "C[C@H]1CC[C@]2(NC1)O[C@H]1C[C@H]3[C@@H]4CC[C@H]5C[C@@H](O)CC[C@]5(C)[C@H]4CC[C@]3(C)[C@H]1[C@@H]2C" was what?
Data returned: inactive

Data request: Please let me know the test result on file for "COc1ccc2c3c1O[C@H]1[C@@H](O)C=C[C@H]4[C@@H](C2)NCC[C@@]341" .
Data returned: inactive

Data request: Identify the outcome logged in this assay for the molecule shown: "CCOC(=O)C(O)(c1ccc(Cl)cc1)c1ccc(Cl)cc1"
Data returned: active

Data request: What classification did "C[C@@H](CO)NC(=O)[C@@H]1C=C2c3cccc4[nH]cc(c34)C[C@H]2N(C)C1" end up with in this test?
Data returned: inactive

Data request: For "C=CCN(C1=NCCN1)c1c(Cl)cccc1Cl" , what call appears in the results of this test?
Data returned: inactive

Data request: In this assay, the call recorded for "CC(=O)OO" was what?
Data returned: inactive

Data request: Test call, this molecule: "C[C@]12N[C@H](Cc3ccccc31)c1ccccc12"
Data returned: inactive

Data request: Returns: the outcome recorded for "CN[C@]1(c2ccccc2Cl)CCCCC1=O" in this assay.
Data returned: inactive

Data request: Called result for "CNC(=O)Oc1ccc2c(c1)[C@]1(C)CCN(C)[C@@H]1N2C"
Data returned: inactive

Data request: Look up the recorded call for "COCCOC(=O)c1ccccc1C(=O)OCCOC" in this test.
Data returned: inactive

Data request: Please let me know the test result on file for "COC1=CC=C2[C@H]3Cc4ccc(OC)c5c4[C@@]2(CCN3C)[C@H]1O5" .
Data returned: inactive

Data request: I would be grateful if you could indicate the recorded call for "NC(=Nc1ccccc1)Nc1ccccc1" .
Data returned: inactive

Data request: # fetch the recorded call for CNC1(c2ccccc2Cl)CCCCC1=O (configuration not stated) here
Data returned: inactive

Data request: How was O=C1OC2(c3cc(Br)c(O)cc3Oc3c2cc(Br)c(O)[c]3[Hg])c2ccccc21 (configuration not stated) classified in this test?
Data returned: inactive

Data request: Write down the call the test reported for this molecule. Item: CN[C@H]1C[C@@H](N)[C@H](O)[C@@H](O[C@@H]2O[C@H](CO)[C@H](O)[C@@H]3OC4(O[C@H]23)O[C@H](C(N)CO)[C@H](O)[C@H](O)[C@H]4O)[C@@H]1O (some centres not stated)
Data returned: inactive

Data request: Hi, sorry to bother you, what did the test record for C#CCN1CC(=O)N(COC(=O)C2C(C=C(C)C)C2(C)C)C1=O (configuration not stated) ?
Data returned: inactive

Data request: For "CCC(=O)O[C@@](Cc1ccccc1)(c1ccccc1)[C@@H](C)CN(C)C" , what call appears in the results of this test?
Data returned: inactive

Data request: Called result for "Oc1cc[c]([Hg][Cl])cc1"
Data returned: active

Data request: How was "Cc1c(N)cccc1[N+](=O)[O-]" classified in this test?
Data returned: inactive

Data request: Query: recorded result category for "CCC1(C)CC(=O)NC(=O)C1" in this test
Data returned: inactive

Data request: Test call, this molecule: CCC1(c2ccccc2)C(=O)NC(=O)N(C)C1=O (configuration not stated)
Data returned: inactive
